These data points were gathered from patent US20120009124A1.

# ASSAYED_TARGET: CXCR4 (Homo sapiens, UniProt P61073)
# Sequence (P61073 whole entry, species assumed): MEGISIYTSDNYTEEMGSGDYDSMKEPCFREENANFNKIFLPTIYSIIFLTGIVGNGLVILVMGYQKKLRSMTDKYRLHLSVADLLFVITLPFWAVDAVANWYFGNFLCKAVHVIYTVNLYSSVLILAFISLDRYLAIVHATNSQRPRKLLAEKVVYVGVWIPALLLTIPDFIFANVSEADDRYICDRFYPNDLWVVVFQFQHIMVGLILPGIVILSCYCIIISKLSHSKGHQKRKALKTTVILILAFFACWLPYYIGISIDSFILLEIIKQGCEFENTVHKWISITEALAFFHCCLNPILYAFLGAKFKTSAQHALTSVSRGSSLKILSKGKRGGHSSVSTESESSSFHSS
Where a SMILES comes first, the peptide text is derived from it. [ ]: non-standard residue; d: D form.
ENDPOINT_NAME: IC50
Note: state the figure and append the unit.

Return value of IC50 for input N=C(N)NCCC[C@@H]1NC(=O)[C@H](CCCNC(=N)N)NC(=O)[C@@H](Cc2ccc(O)cc2)NC(=O)CNC(=O)[C@H](Cc2c[nH]c3ccccc23)NC1=O [Trp] (cyclo([dY]RRWG)) , no commentary.
0.013 µM
